Some binders, each annotated with its measured pEC50.
# tested-target: T1, human 4-1BB on CHO-K1 cells (human, UniProt Q07011 24-255)
# T1 construct: whole, on cells; also called CHO-K1/hu 4-1BB; CHO-K1/hu4-1BB
# T1 sequence (Q07011 24-255): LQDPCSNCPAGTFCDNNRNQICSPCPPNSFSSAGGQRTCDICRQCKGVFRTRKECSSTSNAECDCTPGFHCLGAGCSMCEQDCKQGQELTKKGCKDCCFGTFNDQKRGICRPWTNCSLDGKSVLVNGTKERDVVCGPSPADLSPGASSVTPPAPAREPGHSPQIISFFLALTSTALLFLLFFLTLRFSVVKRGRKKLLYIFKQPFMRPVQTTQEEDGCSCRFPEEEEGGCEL
# method: FACS, CHO-K1/hu 4-1BB cells
pEC50: −log10 of the molar value.

-- ask Note pEC50 for the binder shown: PR001838 (antibody, human IgG1, V domains shown, HCAb, heavy chain only, human IgG1 Fc; also called 1016P0030B2) VH: EVQLLESGGGLVQPGGSLRLSCAASGFTFSNYAMSWFRQPPETGLKWVSSIDGSGGDTYYADSVKGRFTISRDNSKNTLYLQMNSLRAEDTAVYYCAKEGSHGTDDSHYDVDVWGQGTTVTVSS
-- reply > 9.52

Next:
-- ask Identify pEC50 associated with the binder PR001831 (antibody, human IgG1, V domains shown, HCAb, heavy chain only, human IgG1 Fc; also called 1016P0015C8) VH: EVQLVESGGGVIQPGGSLRLSCEASGFTFSSYAMSWVRQAPEKGLEWVSSISGSGDSTYYADSVKGRFTISRDNSKNTLYLQMNSLRAEDTAGYHCAKEGSNGTDDYHYDIDVWGQGTSVTVSS
-- reply > 9.52
